System: 931267-113-T-J1-PDC multicell spheroid viability
Assay Details: Anticancer human tumor 931267-113-T-J1-PDC patient-derived colon adenocarcinoma cell line growth inhibition [PI3K]
Particulars: second compound 0.0316 µM; first compound 10 µM; active compounds read low
Value Type: viability, T/C (%)
# unit: % | format: bare number

# input I am curious: what viability, T/C value has been reported for CCCS(=O)(=O)Nc1ccc(F)c(C(=O)c2c[nH]c3ncc(-c4ccc(Cl)cc4)cc23)c1F + COc1c(OCCCN2CCOCC2)ccc2c3n(c(=NC(=O)c4cnc(N)nc4)nc12)CCN3 ?
# output 8.61

# input // next record CCCS(=O)(=O)Nc1ccc(F)c(C(=O)c2c[nH]c3ncc(-c4ccc(Cl)cc4)cc23)c1F + CC(Nc1ccc2c(c1)OCCn1cc(N3C(=O)OCC3C(F)F)nc1-2)C(N)=O
# output 3.59

# input // next record Cn1ncc(Cl)c1-c1cc(C(=O)NC(CN)Cc2cccc(F)c2)sc1Cl (configuration not stated) + CC(Nc1ccc2c(c1)OCCn1cc(N3C(=O)OCC3C(F)F)nc1-2)C(N)=O
# output 25.9

# input // next record CC1(C)CCC(Nc2ncc(C(F)(F)F)c(-c3c[nH]c4c(P(C)(C)=O)c(C#N)ccc34)n2)CN1 (configuration not stated) + CC(Nc1ncnc2nc[nH]c12)c1cc2cccc(Cl)c2c(=O)n1-c1ccccc1
# output 74.1

# input // next record CC(C)NCC(C(=O)N1CCN(c2ncnc3c2C(C)CC3O)CC1)c1ccc(Cl)cc1 (configuration not stated) + CC(Nc1ccc2c(c1)OCCn1cc(N3C(=O)OCC3C(F)F)nc1-2)C(N)=O
# output 69.9

# input // next record C#Cc1c(F)ccc2cc(O)cc(-c3ncc4c(N5CC6CCC(C5)N6)nc(OCC56CCCN5CC(F)C6)nc4c3F)c12 (configuration not stated) + CC(Nc1ccc2c(c1)OCCn1cc(N3C(=O)OCC3C(F)F)nc1-2)C(N)=O
# output 18.8

# input // next record CC1(C)CCC(Nc2ncc(C(F)(F)F)c(-c3c[nH]c4c(P(C)(C)=O)c(C#N)ccc34)n2)CN1 (configuration not stated) + CC(Nc1ccc2c(c1)OCCn1cc(N3C(=O)OCC3C(F)F)nc1-2)C(N)=O
# output 45

* * *

Test system: 931267-113-T-J1-PDC multicell spheroid viability
Assay Details: Anticancer human tumor 931267-113-T-J1-PDC cell line growth inhibition [PI3K];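 also: viability read 7 days after compound addition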
Particulars: compound 1 µM; active compounds read low
Value Type: viability, T/C

# input I am curious: what viability, T/C value has been reported for CNC(=O)c1ccc(N2C(=S)N(c3ccc(C#N)c(C(F)(F)F)c3)C(=O)C2(C)C)cc1F ?
# output 101% [middle of 4 runs]

# input // next record CC(C)NCC(C(=O)N1CCN(c2ncnc3c2C(C)CC3O)CC1)c1ccc(Cl)cc1 (stereo unspecified)
# output 99.6% [middle of 4 runs]

# input // next record Cn1ncc(Cl)c1-c1cc(C(=O)NC(CN)Cc2cccc(F)c2)sc1Cl (stereo unspecified)
# output 87.7% [middle of 4 runs]

# input // next record CC1(C)CCC(CN2CCN(c3ccc(C(=O)NS(=O)(=O)c4ccc(NCC5CCOCC5)c([N+](=O)[O-])c4)c(Oc4cnc5[nH]ccc5c4)c3)CC2)=C(c2ccc(Cl)cc2)C1
# output 103% [middle of 4 runs]

# input // next record CCN1CCN(Cc2ccc(Nc3ncc(F)c(-c4cc(F)c5nc(C)n(C(C)C)c5c4)n3)nc2)CC1
# output 84.8% [middle of 4 runs]

# input // next record CCCS(=O)(=O)Nc1ccc(F)c(C(=O)c2c[nH]c3ncc(-c4ccc(Cl)cc4)cc23)c1F
# output 129% [middle of 4 runs]

# input // next record C#Cc1c(F)ccc2cc(O)cc(-c3ncc4c(N5CC6CCC(C5)N6)nc(OCC56CCCN5CC(F)C6)nc4c3F)c12 (stereo unspecified)
# output 44.2% [middle of 4 runs]

# input // next record COc1c(OCCCN2CCOCC2)ccc2c3n(c(=NC(=O)c4cnc(N)nc4)nc12)CCN3
# output 39.6% [middle of 8 runs]

# input // next record C=CC(=O)N1CCN(c2nc(=O)n(-c3c(C)ccnc3C(C)C)c3nc(-c4c(O)cccc4F)c(F)cc23)C(C)C1 (stereo unspecified)
# output 109% [middle of 4 runs]

# input // next record CC(Nc1ncnc2nc[nH]c12)c1cc2cccc(Cl)c2c(=O)n1-c1ccccc1 (stereo unspecified)
# output 100% [middle of 8 runs]

# input // next record Cc1nc(NC(=O)N2CCCC2C(N)=O)sc1-c1ccnc(C(C)(C)C(F)(F)F)c1 (stereo unspecified)
# output 80.8% [middle of 7 runs]

* * *

Give measured viability, T/C for each item. Keep answers brief.
System: 931267-113-T-J1-PDC multicell spheroid viability
Assay Details: Anticancer human tumor 931267-113-T-J1-PDC cell line growth inhibition [PI3K];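 also: viability read 7 days after compound addition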
Particulars: second compound 0.01 µM; first compound 0.316 µM; active compounds read low
# unit: % | format: bare number

# input I am curious: what viability, T/C value has been reported for CCN1CCN(Cc2ccc(Nc3ncc(F)c(-c4cc(F)c5nc(C)n(C(C)C)c5c4)n3)nc2)CC1 + COc1c(OCCCN2CCOCC2)ccc2c3n(c(=NC(=O)c4cnc(N)nc4)nc12)CCN3 ?
# output 89

# input // next record C=CC(=O)N1CCN(c2nc(=O)n(-c3c(C)ccnc3C(C)C)c3nc(-c4c(O)cccc4F)c(F)cc23)C(C)C1 (stereo not drawn) + COc1c(OCCCN2CCOCC2)ccc2c3n(c(=NC(=O)c4cnc(N)nc4)nc12)CCN3
# output 91.4

# input // next record Cn1ncc(Cl)c1-c1cc(C(=O)NC(CN)Cc2cccc(F)c2)sc1Cl (stereo not drawn) + COc1c(OCCCN2CCOCC2)ccc2c3n(c(=NC(=O)c4cnc(N)nc4)nc12)CCN3
# output 87.4

* * *

Test system: 931267-113-T-J1-PDC multicell spheroid viability
Assay Details: Anticancer human tumor 931267-113-T-J1-PDC cell line growth inhibition [PI3K];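 also: viability read 7 days after compound addition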
Particulars: second compound 0.1 µM; first compound 0.000316 µM; active compounds read low
Value Type: viability, T/C (%)
# unit: % | format: bare number

# input I am curious: what viability, T/C value has been reported for Cn1ncnc1[C@H]1c2n[nH]c(=O)c3cc(F)cc(c23)N[C@@H]1c1ccc(F)cc1 + CC(Nc1ccc2c(c1)OCCn1cc(N3C(=O)OCC3C(F)F)nc1-2)C(N)=O ?
# output 101

# input // next record Cn1ncnc1[C@H]1c2n[nH]c(=O)c3cc(F)cc(c23)N[C@@H]1c1ccc(F)cc1 + CC(Nc1ncnc2nc[nH]c12)c1cc2cccc(Cl)c2c(=O)n1-c1ccccc1
# output 117

# input // next record CC(C)n1nc(-c2ccc3oc(N)nc3c2)c2c(N)ncnc21 + CC(Nc1ncnc2nc[nH]c12)c1cc2cccc(Cl)c2c(=O)n1-c1ccccc1
# output 106
